Reference source for all entries: the METLIN SMRT retention time set (Domingo-Almenara et al. 2019)

Test: gradient 5% acetonitrile 3 min, to 50% in 2 min, to 85% in 15 min, held 3 min, 100 µL/min
Details: column: Zorbax Extend-C18 2.1 x 50 mm; eluents: water / acetonitrile, 0.1% formic acid
assay_endpoint: RP-LC retention time (s)

compound="OC[C@H]1O[C@@H](n2cnc3c(NC4CCCC4)ncnc32)C(O)[C@H]1O (stereo not given in full)" assay_endpoint="RP-LC retention time" measured_value=630
compound=CCCNC(=O)N1CCC2(CC1)NCCc1c2[nH]c2ccccc12 assay_endpoint="RP-LC retention time" measured_value=613
compound=CCc1noc(-c2cnc3nc(C)ccc3c2NCCc2ccccc2)n1 assay_endpoint="RP-LC retention time" measured_value=621
compound="CC(C(=O)O)c1ccc(N2Cc3ccccc3C2=O)cc1 (stereo not given)" assay_endpoint="RP-LC retention time" measured_value=828
compound=Cc1ccc(OCc2ccc(-c3nc(C#N)c(NCCN(C)C)o3)o2)cc1 assay_endpoint="RP-LC retention time" measured_value=709

* * *

Test: gradient 5% acetonitrile 3 min, to 50% in 2 min, to 85% in 15 min, held 3 min, 100 µL/min
Details: column: Zorbax Extend-C18 2.1 x 50 mm; eluents: water / acetonitrile, 0.1% formic acid
assay_endpoint: RP-LC retention time (s)

A. COCCN1CCCCc2cc(C(=O)NC3CCS(=O)(=O)C3)sc21 (centres undefined)
B. CCCc1nc(-c2ccccc2)oc1CC(=O)Nc1cccc(Cl)c1C
Two entries are listed, A and B . Which one carries the higher RP-LC retention time? // output: label of the selected item
B

I. CC(C)NC(=O)C1=CCN(C(=O)c2cccc(F)c2)CC1
II. CC(C)c1ccc(Nc2c(-c3cc(Br)ccc3O)nc3ncccn23)cc1
Two entries are listed, I and II . Which one carries the higher RP-LC retention time? // output: label of the selected item
II
(II: 1190 s, I: 712 s)

* * *

Experiment: gradient 5% acetonitrile 3 min, to 50% in 2 min, to 85% in 15 min, held 3 min, 100 µL/min
Details: column: Zorbax Extend-C18 2.1 x 50 mm; eluents: water / acetonitrile, 0.1% formic acid
assay_endpoint: RP-LC retention time (s)

compound="COc1ccc(S(=O)(=O)NC(CC(=O)O)c2ccccc2)cc1 (stereo not given)" assay_endpoint="RP-LC retention time" measured_value=674
compound=O=C(CC1CCN(C(=O)c2ccc3nc(-c4ccccc4)oc3c2)CC1)NC1CC1 assay_endpoint="RP-LC retention time" measured_value=730
compound=COc1ccc(NC(=O)c2c[nH]c3ncccc23)cc1 assay_endpoint="RP-LC retention time" measured_value=673
compound=COc1ccc2c(CCN)c[nH]c2c1 assay_endpoint="RP-LC retention time" measured_value=565
compound=CCNC(=O)c1sc2nc(-c3ccccc3)c(NCCOC)n2c1C assay_endpoint="RP-LC retention time" measured_value=712
compound="Cc1cc(C(F)(F)F)nn1CC(=O)NCC1Cn2cccc2CN1C (stereo not given)" assay_endpoint="RP-LC retention time" measured_value=726
compound=CCc1nccn1Cc1nc(-c2ccc(C(F)(F)F)cc2)no1 assay_endpoint="RP-LC retention time" measured_value=700
compound=CN1c2ccc(Cl)cc2C(=O)NC12CCN(C(=O)c1ccc3c(c1)OCO3)CC2 assay_endpoint="RP-LC retention time" measured_value=769
compound="COc1cccc(C(=O)Nc2nnc(C3CC(=O)N(c4ccccc4)C3)o2)c1 (stereo not given)" assay_endpoint="RP-LC retention time" measured_value=690
compound=Cc1ccc(-c2nc3c(C)cccn3c2Nc2ccccc2C)cc1 assay_endpoint="RP-LC retention time" measured_value=788

* * *

Experiment: gradient 5% acetonitrile 3 min, to 50% in 2 min, to 85% in 15 min, held 3 min, 100 µL/min
Details: column: Zorbax Extend-C18 2.1 x 50 mm; eluents: water / acetonitrile, 0.1% formic acid
assay_endpoint: RP-LC retention time (s)

molecule="O=C(NCCc1nc(-c2ccccc2)cs1)C1CC(=O)N(c2n[nH]c3ccccc23)C1 (centres undefined)" assay_endpoint="RP-LC retention time" reading_unit=s measured_value=740
molecule=CCC(=O)Nc1ccc(N2CCN(CC(=O)N(C)C)CC2)cc1C(=O)O assay_endpoint="RP-LC retention time" reading_unit=s measured_value=573
molecule="O=C(C1CCCCN1S(=O)(=O)c1ccc(F)cc1)N1CCc2ccccc21 (centres undefined)" assay_endpoint="RP-LC retention time" reading_unit=s measured_value=1090
molecule=CC(=O)c1ccc(NC(=O)Cn2nc3c4cc(-c5ccc(C(C)C)cc5)nn4ccn3c2=O)cc1 assay_endpoint="RP-LC retention time" reading_unit=s measured_value=1020
molecule="Cc1ccc(NC(=O)CN2C(=O)C3CCCCN3c3ccc(S(=O)(=O)N(C)C)cc32)cc1 (centres undefined)" assay_endpoint="RP-LC retention time" reading_unit=s measured_value=943
molecule=COCCn1cc2c3c(cccc31)CN(C(=O)Nc1ccc(C)cc1C)CC2 assay_endpoint="RP-LC retention time" reading_unit=s measured_value=970
molecule=Cc1ccccc1Oc1nccn2c(=O)n(CC(=O)Nc3ccc(Cl)c(Cl)c3)nc12 assay_endpoint="RP-LC retention time" reading_unit=s measured_value=996
molecule=CCN1C(=O)c2cccnc2Sc2cc(CNC(=O)c3ccc(NC(C)=O)cc3)ccc21 assay_endpoint="RP-LC retention time" reading_unit=s measured_value=654
molecule=COc1cccc(Cn2c(C)c(CNCc3ccccn3)c(C(=O)O)c2C)c1 assay_endpoint="RP-LC retention time" reading_unit=s measured_value=676
molecule=O=C(Cn1ncc2c(N3CCN(c4ccccn4)CC3)ncnc21)Nc1ccc(Br)cc1 assay_endpoint="RP-LC retention time" reading_unit=s measured_value=652
molecule="CCn1c(C(=O)NC(C)CCc2ccco2)cc2sc(Cl)cc21 (centres undefined)" assay_endpoint="RP-LC retention time" reading_unit=s measured_value=738
molecule=O=C(CS(=O)(=O)c1cn(Cc2cccc(F)c2)c2ccccc12)Nc1ccc(F)cc1 assay_endpoint="RP-LC retention time" reading_unit=s measured_value=918
molecule="CCCNC(=O)C1CCCN(c2ncnc3c2nc2n3CCCCC2)C1 (centres undefined)" assay_endpoint="RP-LC retention time" reading_unit=s measured_value=650
molecule=Cc1ccc(S(=O)(=O)Nc2ccc3c(c2)CCC(=O)N3)cc1Cl assay_endpoint="RP-LC retention time" reading_unit=s measured_value=766

* * *

Assay: gradient 5% acetonitrile 3 min, to 50% in 2 min, to 85% in 15 min, held 3 min, 100 µL/min
Settings: column: Zorbax Extend-C18 2.1 x 50 mm; eluents: water / acetonitrile, 0.1% formic acid
assay_endpoint: RP-LC retention time (s)

compound=CCn1cc(-c2nc(CC(=O)Nc3ccc(F)c(C)c3)cs2)c2cccnc21 assay_endpoint="RP-LC retention time" measured_value=902
compound="CCCCNC(=O)C1CCN(S(C)(=O)=O)c2ccccc2O1 (stereo unspecified)" assay_endpoint="RP-LC retention time" measured_value=728
compound=COc1ccccc1N1CCN(S(=O)(=O)c2cc(-c3csc(C)n3)ccc2C)CC1 assay_endpoint="RP-LC retention time" measured_value=1160
compound="Cc1ccccc1S(=O)(=O)N1CCC(c2noc(-c3ccccn3)n2)C1 (stereo unspecified)" assay_endpoint="RP-LC retention time" measured_value=900
compound=COc1ccc(-c2noc(CN3C(=O)COc4ccc(C(C)(C)C)cc43)n2)cc1OC assay_endpoint="RP-LC retention time" measured_value=1120

1. O=C(NC(CO)C(O)c1ccc([N+](=O)[O-])cc1)C(Cl)Cl (stereo unspecified)
2. O=C(NCCc1c[nH]c2ccc(Cl)cc12)c1sc2ncccc2c1-n1cccc1
Record comparison, field RP-LC retention time: mark the lower of 1 and 2 . // output: label of the selected item
1

* * *

Test: gradient 5% acetonitrile 3 min, to 50% in 2 min, to 85% in 15 min, held 3 min, 100 µL/min
Conditions: column: Zorbax Extend-C18 2.1 x 50 mm; eluents: water / acetonitrile, 0.1% formic acid
assay_endpoint: RP-LC retention time (s)

Examples from the recorded data:
compound=CCOC(=O)c1cccc(NC(=O)CCc2c(-c3ccc(Cl)cc3)nc3ccccn23)c1 measured_value=739
compound=CSc1cccc(NC(=O)CN2CCC3(CC2)N=C(c2ccc(Cl)cc2)C(=O)N3)c1 measured_value=627
compound=O=C(Cn1cnc2ccccc2c1=O)N1CCC(c2nnc(-c3ccco3)s2)CC1 measured_value=643

A. CCc1noc(NC(C)=O)c1-c1ccc(OC)c(S(=O)(=O)Nc2ccc(F)cc2Cl)c1
B. COc1ccc(C2Cn3nnc(-c4nc(-c5ccc(OC(C)C)cc5)no4)c3CO2)cc1 (centres undefined)
Two entries are listed, A and B . Which one carries the higher RP-LC retention time? // output: label of the selected item
B
(B: 1250 s, A: 841 s)

* * *

Experiment: gradient 5% acetonitrile 3 min, to 50% in 2 min, to 85% in 15 min, held 3 min, 100 µL/min
Conditions: column: Zorbax Extend-C18 2.1 x 50 mm; eluents: water / acetonitrile, 0.1% formic acid
assay_endpoint: RP-LC retention time (s)

compound=O=C(Cc1cccc(F)c1)N1CCOc2ccccc2C1 measured_value=844
compound=COc1ccc(C2(C(=O)N3CC(N(Cc4ccncc4)CC4CC4)C3)CCCCC2)cc1 measured_value=755
compound="COc1ccccc1C(=O)NC1(C(F)(F)F)C(=O)N(CC2CCCO2)C(C)=C1C(C)=O (stereo not drawn)" measured_value=774
compound=O=C(CN1C(=O)c2ccccc2C1=O)Nc1nnc(C2=COCCO2)o1 measured_value=609
compound=CCCCOc1ccc(NC(=O)N(Cc2ccccn2)Cc2ccco2)cc1 measured_value=788
compound=COc1ccccc1-c1cc(C(=O)N2CCN(c3cc(=O)n(C(C)C)c(=O)n3C(C)C)CC2)[nH]n1 measured_value=861
compound="CCOC(=O)CCC(=O)NCC1CN(c2ccc(Cl)c(Cl)c2)C(=O)O1 (stereo not drawn)" measured_value=774
compound=O=C(NCCn1nc(-c2ccco2)ccc1=O)c1ccc2c(c1)ncn2-c1ccccc1 measured_value=629

P. Cc1cccc(NS(=O)(=O)c2c[nH]c3ncccc23)c1C
Q. COc1ccc(-n2ncc3c(=O)n(Cc4nc(-c5cccc(C(F)(F)F)c5)no4)cnc32)cc1
Two entries are listed, P and Q . Which one carries the higher RP-LC retention time? // output: label of the selected item
Q
(Q: 1130 s, P: 762 s)
